# measured.target: T1, human IGF2^1-67 (mature insulin-like growth factor 2) (human, UniProt P01344 25-91, biotinylated (site not stated) where immobilised on the chip (Tables 1-4))
# T1 construct: mature; also called mature IGF2; biotinylated IGF2
# T1 sequence (P01344 25-91): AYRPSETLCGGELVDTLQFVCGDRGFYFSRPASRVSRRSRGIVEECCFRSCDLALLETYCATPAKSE
# method.description: SPR kinetic, biotin-IGF2 on chip
property.name: log10 kon (log10 of the value in M⁻¹ s⁻¹)
Log10 applied to kon; unit prior to transform: M⁻¹ s⁻¹.

domain 11^AB5 + 51F (HI-NRQS) (receptor, See m5; Protein quality poor) MKSNEHDDCQVTNPSTGHLFDLSSLSGRAGFTAAYAKGWGVYMSICGENENCPPGVGACFGQTRISVGKANKRLRYVDQVLQLVYKDGSPCPSKSGLSYKSVISFVCRPEAGPTNRPMLISLNRQSCTLFFSWHTPLACEQATECSV :: 6.87
domain 11^WT + 23D (HI-HFQS) (receptor, See m5; Protein quality poor based on absorption spectra) MKSNEHDDCQVTNPSTGHLFDLSSLSGRAGFTAAYSEKGLVYMSICGENENCPPGVGACFGQTRISVGKANKRLRYVDQVLQLVYKDGSPCPSKSGLSYKSVISFVCRPEAGPTNRPMLISLHFQSCTLFFSWHTPLACEQATECSV :: 5.40
domain 11^WT + 26C (HI-DMQT) (receptor, See m5; Protein quality poor) MKSNEHDDCQVTNPSTGHLFDLSSLSGRAGFTAAYSEKGLVYMSICGENENCPPGVGACFGQTRISVGKANKRLRYVDQVLQLVYKDGSPCPSKSGLSYKSVISFVCRPEAGPTNRPMLISLDMQTCTLFFSWHTPLACEQATECSV :: 6.28
domain 11^WT + 27G (HI-NMAL) (receptor, See m5; Protein quality poor) MKSNEHDDCQVTNPSTGHLFDLSSLSGRAGFTAAYSEKGLVYMSICGENENCPPGVGACFGQTRISVGKANKRLRYVDQVLQLVYKDGSPCPSKSGLSYKSVISFVCRPEAGPTNRPMLISLNMALCTLFFSWHTPLACEQATECSV :: 6.30

// log10 kon lookup, key: domain 11^AB3 Q1569R (receptor, See m5; also called AB3 + 73E (CD-Q1569R)) MKSNEHDDCQVTNPSTGHLFDLSSLSGRAGFTAAYSKSGVVYMSICGENENCPPGVGACFGRTRISVGKANKRLRYVDQVLQLVYKDGSPCPSKSGLSYKSVISFVCRPEAGPTNRPMLISLDKQTCTLFFSWHTPLACEQATECSV
7.13
